Numbers sourced from paper PMC12076163.

target desc: hen egg-white lysozyme (Gallus gallus, UniProt P00698)

| molecule | Kd / µM |
| --- | --- |
| CC(=O)N[C@H]1C(O)O[C@H](CO)[C@@H](O)[C@@H]1O (stereo partly shown) | 6 |
